- Test system: Pseudomonas aeruginosa
- runDescription: Antibacterial activity against Pseudomonas aeruginosa ATCC 27853 at 500 ug/mL after 24 hrs by well plate method
- Type: functional
- settings: ATCC 27853, 24 h, read-out: DIZ
Collected zone of inhibition at 500 µg/mL values appear next to each entry.
Numbers only; they are read as mm.

Please review the following examples before continuing.
- molecule: "COc1cc(C2CC(=NOC(=O)c3cccc(O)c3)CC(c3ccc(O)c(OC)c3)N2C)ccc1O (stereo not drawn)"
  unitDescriptor: "mm"
  zone of inhibition at 500 µg/mL: 3
- molecule: "COc1cc(C2CC(=NOC(=O)c3ccccc3O)CC(c3ccc(O)c(OC)c3)N2C)ccc1O (stereo not drawn)"
  unitDescriptor: "mm"
  zone of inhibition at 500 µg/mL: 3

# lookup: zone of inhibition at 500 µg/mL of COc1cc(C2CC(=NOC(=O)c3cc(O)c(O)c(O)c3)CC(c3ccc(O)c(OC)c3)N2C)ccc1O (stereo not drawn)
3

And then COc1cc(C2CC(=NOC(=O)c3ccc(F)cc3)CC(c3ccc(O)c(OC)c3)N2C)ccc1O (stereo not drawn) , what is it?
13

Item: COc1cc(C2CC(=NOC(=O)c3ccc(Cl)cc3)CC(c3ccc(O)c(OC)c3)N2C)ccc1O (stereo not drawn)
12

====

# zone of inhibition at 500 µg/mL per record follows
- System: Aspergillus flavus
- runDescription: Antifungal activity against Aspergillus flavus MTCC 3306 at 500 ug/mL after 72 hrs by well plate method
- Assay type: functional
- settings: MTCC 3306, 72 h, read-out: DIZ
Give the value in mm but do not write mm after it.

// worked examples, zone of inhibition at 500 µg/mL included
- compound: "COc1cc(C2CC(=NOC(=O)c3ccc(Br)cc3)CC(c3ccc(O)c(OC)c3)N2C)ccc1O (stereo not given)"
  zone of inhibition at 500 µg/mL, mm: 5
- compound: "COc1cc(C2CC(=NOC(=O)c3cc(O)cc(O)c3)CC(c3ccc(O)c(OC)c3)N2C)ccc1O (stereo not given)"
  zone of inhibition at 500 µg/mL, mm: 1
- compound: "COc1cc(C2CC(=NO)CC(c3ccc(O)c(OC)c3)N2C)ccc1O (stereo not given)"
  zone of inhibition at 500 µg/mL, mm: 0
- compound: "COc1cc(C2CC(=NOC(=O)c3ccc(Cl)cc3)CC(c3ccc(O)c(OC)c3)N2C)ccc1O (stereo not given)"
  zone of inhibition at 500 µg/mL, mm: 12

So what does the record say about zone of inhibition at 500 µg/mL for COc1cc(C2CC(=NOC(=O)c3cccc(O)c3)CC(c3ccc(O)c(OC)c3)N2C)ccc1O (stereo not given) ?
1

Please do the same for COc1cc(C2CC(=NOC(=O)c3cc(OC)c(OC)c(OC)c3)CC(c3ccc(O)c(OC)c3)N2C)ccc1O (stereo not given) as well.
4

COc1cc(C2CC(=NOC(=O)c3ccccc3O)CC(c3ccc(O)c(OC)c3)N2C)ccc1O (stereo not given) , same question.
3

And what about the compound COc1cc(C2CC(=NOC(=O)c3ccc([N+](=O)[O-])cc3)CC(c3ccc(O)c(OC)c3)N2C)ccc1O (stereo not given) ?
3

Subsequent entry: OC(Cn1cncn1)(Cn1cncn1)c1ccc(F)cc1F [FLUCONAZOLE]
12

And COc1cc(C2CC(=NOC(=O)c3ccc(O)cc3)CC(c3ccc(O)c(OC)c3)N2C)ccc1O (stereo not given) ?
12

Again, but for COc1cc(C2CC(=NOC(=O)c3ccccc3)CC(c3ccc(O)c(OC)c3)N2C)ccc1O (stereo not given)
1

# repeat for COc1ccc(C(=O)ON=C2CC(c3ccc(O)c(OC)c3)N(C)C(c3ccc(O)c(OC)c3)C2)c(OC)c1 (stereo not given)
4

Same thing, different compound: COc1ccc(C(=O)ON=C2CC(c3ccc(O)c(OC)c3)N(C)C(c3ccc(O)c(OC)c3)C2)cc1 (stereo not given)
5

Also need COc1cc(C2CC(=NOC(=O)c3cc(O)c(O)c(O)c3)CC(c3ccc(O)c(OC)c3)N2C)ccc1O (stereo not given) , thanks.
2

Try COc1cc(C2CC(=NOC(=O)c3ccc(F)cc3)CC(c3ccc(O)c(OC)c3)N2C)ccc1O (stereo not given) next.
13

====

# zone of inhibition at 500 µg/mL listing for each entry below
- System: Escherichia coli
- runDescription: Antibacterial activity against Escherichia coli ATCC 25922 at 500 ug/mL after 24 hrs by well plate method
- Format: functional
- settings: ATCC 25922, 24 h, read-out: DIZ
Only the number, expressed in mm, is required.

Worked examples, 3 compounds total:
- compound: "COc1cc(C2CC(=NOC(=O)c3ccccc3O)CC(c3ccc(O)c(OC)c3)N2C)ccc1O (centres undefined)"
  zone of inhibition at 500 µg/mL (mm): 4
- compound: "COc1ccc(C(=O)ON=C2CC(c3ccc(O)c(OC)c3)N(C)C(c3ccc(O)c(OC)c3)C2)c(OC)c1 (centres undefined)"
  zone of inhibition at 500 µg/mL (mm): 4
- compound: "COc1cc(C2CC(=NOC(=O)c3ccc([N+](=O)[O-])cc3)CC(c3ccc(O)c(OC)c3)N2C)ccc1O (centres undefined)"
  zone of inhibition at 500 µg/mL (mm): 4

Now for a further compound.
Recorded zone of inhibition at 500 µg/mL for COc1cc(C2CC(=NOC(=O)c3ccc(O)cc3)CC(c3ccc(O)c(OC)c3)N2C)ccc1O (centres undefined) , please?
4

====

- Test system: Aspergillus flavus
- runDescription: Antifungal activity against Aspergillus flavus MTCC 3306 at 1000 ug/mL after 72 hrs by well plate method
- Assay type: functional
- settings: MTCC 3306, 72 h, read-out: DIZ
In this section, each of the compounds is paired with its reported zone of inhibition at 1000 µg/mL.
Kindly answer with a numeric value in mm, unit omitted.

- compound: "COc1cc(C2CC(=NOC(=O)c3ccccc3)CC(c3ccc(O)c(OC)c3)N2C)ccc1O (stereo not given)"
  numericValue: 2

So what zone of inhibition at 1000 µg/mL did COc1cc(C2CC(=NOC(=O)c3cc(OC)c(OC)c(OC)c3)CC(c3ccc(O)c(OC)c3)N2C)ccc1O (stereo not given) get with Aspergillus flavus?
3

Further, for COc1cc(C2CC(=NOC(=O)c3cccc(O)c3)CC(c3ccc(O)c(OC)c3)N2C)ccc1O (stereo not given) ?
2

Subsequent entry: COc1cc(C2CC(=NOC(=O)c3ccc(Br)cc3)CC(c3ccc(O)c(OC)c3)N2C)ccc1O (stereo not given)
6

Consider next the compound COc1cc(C2CC(=NO)CC(c3ccc(O)c(OC)c3)N2C)ccc1O (stereo not given) in the same way.
1

====

- System: Pseudomonas aeruginosa
- runDescription: Antibacterial activity against Pseudomonas aeruginosa ATCC 27853 at 500 ug/mL after 24 hrs by well plate method
- Format: functional
- settings: ATCC 27853, 24 h, read-out: DIZ
Below, each of the compounds is paired with its reported zone of inhibition at 500 µg/mL value.
All answers are understood in mm, so give the number only.

- compound: "COc1ccc(C(=O)ON=C2CC(c3ccc(O)c(OC)c3)N(C)C(c3ccc(O)c(OC)c3)C2)c(OC)c1 (stereo not drawn)"
  outcomeMeasure: "zone of inhibition at 500 µg/mL"
  numericValue: 6
- compound: "COc1cc(C2CC(=NOC(=O)c3ccc(O)cc3)CC(c3ccc(O)c(OC)c3)N2C)ccc1O (stereo not drawn)"
  outcomeMeasure: "zone of inhibition at 500 µg/mL"
  numericValue: 2

Would you kindly look at the next entry?
What zone of inhibition at 500 µg/mL appears in the records for this compound with Pseudomonas aeruginosa? COc1cc(C2CC(=NO)CC(c3ccc(O)c(OC)c3)N2C)ccc1O (stereo not drawn)
0
